biological target: UniProtKB P0DMS8
Sequence (P0DMS8 whole entry): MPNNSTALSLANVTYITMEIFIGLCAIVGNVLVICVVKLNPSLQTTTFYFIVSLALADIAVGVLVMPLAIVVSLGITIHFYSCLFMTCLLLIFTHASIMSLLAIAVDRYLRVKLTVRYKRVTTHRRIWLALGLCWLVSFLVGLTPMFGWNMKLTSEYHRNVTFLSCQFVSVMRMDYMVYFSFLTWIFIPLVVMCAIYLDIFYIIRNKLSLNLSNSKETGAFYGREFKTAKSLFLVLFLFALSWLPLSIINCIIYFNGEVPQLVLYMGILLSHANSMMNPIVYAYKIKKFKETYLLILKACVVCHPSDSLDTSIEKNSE
Listed below: AC50 values for each entry.

# count of solved cases: 2
molecule	AC50
CC1(C)O[C@@H]2C[C@H]3[C@@H]4CCC5=CC(=O)C=C[C@]5(C)[C@H]4[C@@H](O)C[C@]3(C)[C@]2(C(=O)CO)O1 [DESONIDE]	> 10 µM
Cc1ccc(-n2nccn2)c(C(=O)N2CCN(c3nc4cc(Cl)ccc4o3)CC[C@H]2C)c1 [SUVOREXANT]	> 10 µM

Form entry - test system: UniProtKB P0DMS8; read-out: AC50; molecule: CNC(=C[N+](=O)[O-])NCCSCc1ccc(CN(C)C)o1 [RANITIDINE]
> 30 µM

Form entry - test system: UniProtKB P0DMS8; read-out: AC50; molecule: CNC1Cc2ccccc2N(C)c2ccccc21 (stereo not given) [METAPRAMINE]
> 30 µM

Form entry - test system: UniProtKB P0DMS8; read-out: AC50; molecule: CN(C)CC/C=C1\c2ccccc2CSc2ccccc21 [DOTHIEPIN]
> 30 µM
